Origin of measurements: patent US20080299072A1

- STUDY_SYSTEM: T1, CCR1 (UniProt P32246 1-355, limits assumed)
- T1 construct: whole, on cells; Membrane preparation of CHO transfectants; also called CCR1-expressing CHO membranes
- T1 sequence (looked up): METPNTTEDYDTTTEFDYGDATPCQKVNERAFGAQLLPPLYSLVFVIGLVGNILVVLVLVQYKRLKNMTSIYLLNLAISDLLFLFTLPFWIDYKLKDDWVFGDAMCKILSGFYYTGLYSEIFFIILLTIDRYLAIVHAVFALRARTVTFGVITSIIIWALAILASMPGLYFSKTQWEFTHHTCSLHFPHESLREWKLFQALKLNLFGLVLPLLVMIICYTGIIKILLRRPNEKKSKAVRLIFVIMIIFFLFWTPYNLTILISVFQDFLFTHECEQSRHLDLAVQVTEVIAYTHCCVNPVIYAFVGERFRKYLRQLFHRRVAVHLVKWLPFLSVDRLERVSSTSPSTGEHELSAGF
- PROTOCOL_NOTES: competition SPA, displacement of 125I-MIP-1α from CCR1 CHO membranes (FIG. 1)
For each record, write down the corresponding IC50.
Kindly report the value followed by its unit.

IC50 measured on Met-RANTES (ligand, The build (Met + mature RANTES) comes from the background description and the name) MSPYSSDTTPCCFAYIARPLPRAHIKEYFYTSGKCSNPAVVFVTRKNRQVCANPEKKWVREYINSLEMS = 72 nM

Record S4C-5 kDaPEG-RANTES (ligand, This is probably a printing error; also called S4C-5 kDa-RANTES) SPYC(mPEG‑MAL 5 kDa)SDTTPCCFAYIARPLPRAHIKEYFYTSGKCSNPAVVFVTRKNRQVCANPEKKWVREYINSLEMS , field IC50: 83 nM

So for Mature wildtype (wt) human RANTES (ligand, The mature form was used; also called WT RANTES; CCL5) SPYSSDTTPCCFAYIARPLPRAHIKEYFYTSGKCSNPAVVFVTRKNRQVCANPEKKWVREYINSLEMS , the logged IC50 turned out to be 69 nM
